Some binders, each annotated with its measured percent of cells in the CD123-Fc positive gate.
Molecular target: T1, CD123-Fc recombinant protein (human, UniProt P26951 19-305)
T1 construct: construct not described; not shown: Fc part
T1 sequence (looked up): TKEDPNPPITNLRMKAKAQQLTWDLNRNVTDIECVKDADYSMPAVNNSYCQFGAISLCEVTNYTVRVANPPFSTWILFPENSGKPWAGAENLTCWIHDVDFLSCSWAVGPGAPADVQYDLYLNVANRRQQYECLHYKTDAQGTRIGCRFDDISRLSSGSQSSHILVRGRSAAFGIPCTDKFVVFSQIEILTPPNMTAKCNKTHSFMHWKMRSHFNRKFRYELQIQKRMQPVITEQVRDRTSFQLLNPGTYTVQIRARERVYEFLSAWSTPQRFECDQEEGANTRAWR
Assay: flow cytometry of T cells electroporated with CAR mRNA, stained with CD123-Fc + PE-anti-hIgG-Fc; Mock 1.68
Number only, in %; omit the unit.

Item anti-CD123 scFv-C13 (scFv, On mRNA-electroporated T cells as CAR) scFv: DVVMTQTPLSLPVTLGQPASISCRSSQGLVFSDGVTYLNWFQQRPGQSPRRLIYKVSNRDSGVPDRFSGSGSGTDFTLKISRVEAEDVGIYYCMQGTHWPHTFGQGTKLEIKGGGGSGGGGSGGGGSEVQLVESGGGLVKPGGSLRLSCAASGFTFSSYSMNWVRQAPGKGLEWVAFISHDASKKFYADSVKGRFTLSRDNSKNTLYLEMNSLGAEDTALYYCGRDRNWGFSDFWGQGTLVTVSS has what recorded percent of cells in the CD123-Fc positive gate?
85.7

---
Which percent of cells in the CD123-Fc positive gate reading was recorded for the binder anti-CD123 scFv-C6 (scFv, On mRNA-electroporated T cells as CAR) scFv: SYELTQPPSVSVSPGQTARIPCSGADLGDQYVSWYQHQPGQSPLLVIYEDDKRPSGIPERFSGSNSGNTATLTISGTQAMDEADYYCQAWDGNAAIFGGGTKLTVLGGGGSGGGGSGGGGSQVQLVQSGGGSVQPGGSLRLSCAASGFTFTRYSMNWVRQAPGKGLEWVSYISSSSSTIYYADSVKGRFTISRDNAKNSLYLQMNSLRDEDTAVYYCARDGYGGNSDYYGMDVWGQGTTVTVSS ?
93.3

For anti-CD123 scFv-C11 (scFv, On mRNA-electroporated T cells as CAR; also called anti-CD123-C11) scFv: QSVVTQPPSASGTPGQRVTISCSGSSSNIGSNYVYWYQQLPGTAPKLLIYRNNQRPSGVPDRFSGSKSGTSASLAISGLRSEDEADYYCAAWDDSLSGYVFGTGTKLTVLGGGGSGGGGSGGGGSEVQLVESGGGLVQPGRSLRLSCTASGFTFGDYAMSWVRQAPGKGLEWVGFIRSKAYGGTTEYAASVKGRFTISRDDSKSIAYLQMNSLKTEDTAVYYCTRDIGYYGSGSYSPFDYWGQGTLVTVSS , what is its reported percent of cells in the CD123-Fc positive gate?
38
